Data provenance: PubChem BioAssay AID248

Test system: L1210 leukemia ip in BDF1 mice, survival T/C
Experiment: NCI In Vivo Anticancer Drug Screen. Data for tumor model L1210 Leukemia (intraperitoneal) in B6D2F1 (BDF1) mice
Conditions: endpoint: mean survival time; dose: 25.0 mg/kg/injection; schedule: Q01DX009 (ip); vehicle: Klucel (hydroxypropylcellulose) (HPC); higher = longer survival
Toxic doses and inconclusive results are not listed.
Measured T/C by item
observation.type: T/C

>>> measured_result("Br[C](Br)(Br)[Hg][c]1ccccc1")
"87 % of control"
>>> measured_result("CCCCOC(=O)c1ccc(NC(=O)Nc2cc([N+](=O)[O-])ccc2Cl)cc1")
"113 % of control"
>>> measured_result("Nc1nc(N)c2[nH]cnc2n1")
"111 % of control"
>>> measured_result("CC(=O)c1c(O)c(Br)c(C)oc1=O")
"93 % of control"
>>> measured_result("O=c1ccc([N+](=O)[O-])c[nH]1.[Ag]")
"95 % of control"
>>> measured_result("CN(C)c1ccc(N=Nc2ccncc2)cc1")
"98 % of control"
>>> measured_result("BrCc1cc2ccccc2cc1CBr")
"96 % of control"
>>> measured_result("ClCC1=NCCCN1")
"97 % of control"
>>> measured_result("O=C(O)CCSSc1ccc([N+](=O)[O-])cc1[N+](=O)[O-]")
"99 % of control"
